Ref: ChEMBL document CHEMBL3988442

tested.target: Shiga toxin 2 (Escherichia coli O157:H7) (UniProt P09385+P09386)
measurement.description: E. coli 0.157:H7 Shiga Toxin SOP - stx2 screening assay
Assay type: functional
Design: scale not given: direction of the effect not stated beside the values
experimental.setup: 30 µM
quantity.kind: Percent Effect (%)

>>> number("CCc1nc(CN2CCCN(C(=O)c3cn[nH]c3CC)CC2)cs1")
-78.4
>>> number("CN1CC(C(=O)NC(C)(C)C)CC1=O (centres undefined)")
-21.3
>>> number("CCc1nc(C2CCCN2C(=O)c2nccnc2N)no1 (centres undefined)")
8.58
>>> number("NC(=O)c1cccc(CC2CCN(C(=O)CCCN3CCOCC3)C2)c1 (centres undefined)")
-6.5
>>> number("Cc1ccoc1-c1nnc(CNCC2CCCN2c2cccnn2)o1 (centres undefined)")
5.85
>>> number("CC(C)CN1CCC2(CCN(Cc3ccsc3)CC2)C1=O")
-18.6
>>> number("Fc1cccc(-c2nc(CN3CCCCC3Cn3cncn3)co2)c1 (centres undefined)")
14.4
>>> number("CNc1nc(CNC(=O)Nc2ccccc2SC)cs1")
22.5
>>> number("CCc1c(C)nc2n(c1=O)CC(C(=O)Nc1nc3c(s1)CCCC3)CS2 (centres undefined)")
-5.2
